# Target Of Assay: Alpha-2A adrenergic receptor (Homo sapiens, UniProt P08913)
# Sequence (P08913 whole entry): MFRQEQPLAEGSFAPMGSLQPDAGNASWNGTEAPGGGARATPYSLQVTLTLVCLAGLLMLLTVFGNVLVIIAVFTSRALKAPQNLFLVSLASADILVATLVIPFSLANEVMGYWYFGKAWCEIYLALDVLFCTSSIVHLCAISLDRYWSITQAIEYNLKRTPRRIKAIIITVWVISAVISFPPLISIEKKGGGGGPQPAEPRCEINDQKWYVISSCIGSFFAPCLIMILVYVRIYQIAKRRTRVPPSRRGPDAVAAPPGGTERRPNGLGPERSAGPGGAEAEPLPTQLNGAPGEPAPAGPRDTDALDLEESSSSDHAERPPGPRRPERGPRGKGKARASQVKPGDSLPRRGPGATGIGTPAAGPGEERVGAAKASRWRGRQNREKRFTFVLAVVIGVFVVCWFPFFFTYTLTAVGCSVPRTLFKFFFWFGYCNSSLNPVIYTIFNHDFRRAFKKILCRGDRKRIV
Observed Property: pIC50
Notebook: values listed as pIC50 are -log10 of the concentration (mol/L).

Sure, the documented pIC50 for C[C@H](N)Cc1c[nH]c2ccc3c(c12)CCCO3 is 4.72

----------
# Target Of Assay: 5-hydroxytryptamine receptor 2B (Homo sapiens)
# Sequence (P41595 whole entry): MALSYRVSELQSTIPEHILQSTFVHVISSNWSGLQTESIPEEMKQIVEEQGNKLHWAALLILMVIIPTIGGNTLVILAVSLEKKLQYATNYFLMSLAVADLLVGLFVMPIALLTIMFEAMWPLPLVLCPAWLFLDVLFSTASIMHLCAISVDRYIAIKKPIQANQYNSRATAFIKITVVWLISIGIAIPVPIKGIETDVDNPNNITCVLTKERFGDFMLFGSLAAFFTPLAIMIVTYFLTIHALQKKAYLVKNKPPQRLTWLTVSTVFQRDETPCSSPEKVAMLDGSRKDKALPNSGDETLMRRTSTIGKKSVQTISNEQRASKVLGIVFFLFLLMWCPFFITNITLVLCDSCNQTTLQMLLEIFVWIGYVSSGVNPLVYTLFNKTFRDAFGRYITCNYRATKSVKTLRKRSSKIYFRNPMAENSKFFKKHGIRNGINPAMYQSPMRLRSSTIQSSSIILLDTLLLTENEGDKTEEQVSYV
pKi: −log10 of the molar value.
Label rule not met if pKi falls below 8; label rule met in every other case.

Some solved cases for reference:
* C[C@@H](N)Cc1c[nH]c2ccc3c(c12)CCCO3 | rule not met
* CN(C)CCc1c[nH]c2ccc3c(c12)CCCO3 | rule not met
* C[C@H](N)Cc1c[nH]c2ccc3c(c12)CCCO3 | rule met

Next up:
Incoming: Entry COc1cc(C[C@@H](C)N)c(OC)cc1I : is its pKi no less than 8?
Outgoing: rule not met
